- studyTarget: StrepII-tagged ROR1-extracellular domain (human, UniProt Q01973)
- Sequence (Q01973 other isoform, or with tags, fused parts or gaps): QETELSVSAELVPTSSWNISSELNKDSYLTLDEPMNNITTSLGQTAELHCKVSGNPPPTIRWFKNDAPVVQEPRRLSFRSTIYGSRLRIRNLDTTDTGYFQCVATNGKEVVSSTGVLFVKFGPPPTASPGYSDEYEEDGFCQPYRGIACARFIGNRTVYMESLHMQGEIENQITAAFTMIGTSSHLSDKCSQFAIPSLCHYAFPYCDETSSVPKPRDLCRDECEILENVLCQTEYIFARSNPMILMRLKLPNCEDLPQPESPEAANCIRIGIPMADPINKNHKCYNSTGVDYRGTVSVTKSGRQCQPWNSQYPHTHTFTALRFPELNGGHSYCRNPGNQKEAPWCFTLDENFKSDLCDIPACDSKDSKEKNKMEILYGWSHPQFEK
- testMethodNotes: SPR (Biacore T200), purified mAb captured by anti-human Fc, ROR1-strep as analyte, 1:1 model
measuredEndpoint: kon (M⁻¹ s⁻¹)
Return type: number; implicit unit M⁻¹ s⁻¹.

Take a look at these entries with their results.
{"binder": "rbQ12, humanized from R11 (antibody, V domains shown) VH: EVQLVESGGGLVQPGGSLRLSCAASGSDINDYPISWVRQAPGKGLEWVSFINSGGSTWYASWVKGRFTISRDNAKNSLYLQMNSLRADDTATYFCARGYSTYYGDFNIWGQGTMVTVSS VL: EIVMTQSPSSLSASVGDRVTITCQASQSIDSNLAWFQQKPGKAPNLLIYRASNLASGVPSRFSGSGSGTEFTLTISSLQREDAATYYCLGGVGNVSYRTSFGQGTKVEIK", "kon [M⁻¹ s⁻¹]": 733000}
{"binder": "rbQ11, humanized from R11 (antibody, V domains shown) VH: EVQLVQSGGGLVQPGGSLRLSCAASGSDINDYPISWVRQAPGKGLEWVSFINSGGSTWYASWVKGRFTISRDNAKNSLYLQMNSLRDDDTATYFCARGYSTYYGDFNIWGQGTLVTVSS VL: DIVMTQSPSSLSASVGDRVTITCQASQSIDSNLAWFQQKPGKAPKSLIYRASNLASGVPSKFSGSGSGTDFTLTISSLQREDAATYYCLGGVGNVSYRTSFGGGTKVEIK", "kon [M⁻¹ s⁻¹]": 821000}
{"binder": "hu2A2-D16, humanized from 2A2 (antibody, V domains shown) VH: EVQLVESGAEVKKPGASVKVSCKASGYTFSDYEMHWVRQAPGQGLEWVGAIDPETGGTAYNQKFKGRVTMTRDTSTSTVYMELSSLRSEDTAVYYCTGYYDYDSFTYWGQGTLVTVSS VL: DIQMTQSPSSLSASVGDRVTITCKASQNVDAAVAWYQQKPGKAPKLLIYSASNRYTGIPTRFSGSGSGTDFTLTISSLQSEDLADYFCQQYDIYPYTFGQGTKVEIK", "kon [M⁻¹ s⁻¹]": "1.73e+06"}

Note: attention shifts to another entry.
Q) Please report the measured kon for hu2A2b-Q11, humanized from 2A2 (antibody, V domains shown) VH: EVQLVQSGAEVKKPGASVKVSCKASGYTFSDYEMHWVRQAPGQGLEWLGAIDPETGGTAYNQKFKGRVTMTGDTSISTAYMELSRLTSDDTAVYYCTGYYDYDSFTYWGQGTLVSVSS VL: DIQMTQSPSSLSTSVGDRVTITCKASQNVDAAVAWYQQKPGKAPKLLIYSASNRYTGVASRFSGSGSGTDFTFTISSLQSEDLADYFCQQYDIYPYTFGQGTKLEIK
A) 1.75e+06
